conditions: in methanol, 298.15 K
quantity-measured: solubility (mole fraction)
Give bare numbers.

Value of solubility (mole fraction) reported for the compound CC(C)(C)c1cc(CCC(=O)NCCCCCCNC(=O)CCc2cc(C(C)(C)C)c(O)c(C(C)(C)C)c2)cc(C(C)(C)C)c1O is 0.0032

----------
settings: in ethyl formate, 308.15 K
quantity-measured: solubility (mole fraction)
Answers are plain numbers.

Value of solubility (mole fraction) reported for the compound CC(C)(C)c1cc(CCC(=O)NCCCCCCNC(=O)CCc2cc(C(C)(C)C)c(O)c(C(C)(C)C)c2)cc(C(C)(C)C)c1O is 0.00406

----------
settings: in methyl acetate, 308.15 K
quantity-measured: solubility (mole fraction)
One number for each entry.

Value of solubility (mole fraction) reported for the compound CC(C)(C)c1cc(CCC(=O)NCCCCCCNC(=O)CCc2cc(C(C)(C)C)c(O)c(C(C)(C)C)c2)cc(C(C)(C)C)c1O is 0.00185
